# Target entity: CsoRSl R132A (Streptomyces lividans 1326) (UniProt D6EK73)
# Assay explanation: ITC
# Settings: ITC: 10 mM HEPES, 150 mM NaCl, pH 7.5, 25 C, 100 uM DNA into 10 uM CsoR tetramer; EMSA: same buffer, room temperature, 30 min, 6% PAGE in TBE; SEC: same buffer
Assay readout: pKd
// field semantics: pKd = negative decimal log of concentration (mol/L)

Task: Kindly indicate its recorded pKd. Item: CGGACAAATACCCCTGGTGGGTATATATGG (double strand) [csoR-EXT]
Output: 6.51
